The entries below are paired with their reported Emax.
- target.entity: Delta-type opioid receptor (Homo sapiens, UniProt P41143)
- Sequence (P41143 whole entry): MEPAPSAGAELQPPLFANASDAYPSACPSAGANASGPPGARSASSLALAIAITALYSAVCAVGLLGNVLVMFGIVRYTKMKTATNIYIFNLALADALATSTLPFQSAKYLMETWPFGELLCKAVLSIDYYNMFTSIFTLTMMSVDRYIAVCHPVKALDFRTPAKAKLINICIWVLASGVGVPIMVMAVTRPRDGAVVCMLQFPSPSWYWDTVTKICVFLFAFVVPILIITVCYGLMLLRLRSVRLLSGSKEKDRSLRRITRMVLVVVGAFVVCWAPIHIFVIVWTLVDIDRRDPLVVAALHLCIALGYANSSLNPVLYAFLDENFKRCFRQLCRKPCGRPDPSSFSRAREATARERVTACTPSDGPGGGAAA
- run.description: Agonist activity at human DOR expressed in CHO-K1 cells co-expressing G-alpha15 by calcium mobilization assay relative to control
- Type: functional, cell-based
- condition.summary: filed as agonist
Numeric only. Scale: %

Data request, read-out Emax, for NC(=O)[C@@H]1CCCN1C(=O)[C@H]1CC(=O)NCCCC[C@@H](NC(=O)[C@@H](N)Cc2ccc(O)cc2)C(=O)NCC(=O)N[C@@H](Cc2ccc3ccccc3c2)C(=O)N1
110

Also need CN1CC(=O)N[C@@H](Cc2ccccc2)C(=O)N[C@@H](C(=O)N2CCC[C@H]2C(N)=O)CC(=O)NCCCC[C@@H](NC(=O)[C@@H](N)Cc2ccc(O)cc2)C1=O , thanks.
100

Also need C[C@@H]1NC(=O)[C@H](NC(=O)[C@@H](N)Cc2ccc(O)cc2)CCCCNC(=O)C[C@H](C(=O)N2CCC[C@H]2C(N)=O)NC(=O)[C@H](Cc2ccccc2)NC1=O , thanks.
96.6

Also need NC(=O)[C@@H]1CCCN1C(=O)[C@H]1CC(=O)NCCCC[C@@H](NC(=O)[C@@H](N)Cc2ccc(O)cc2)C(=O)NCC(=O)N[C@@H](Cc2ccccc2)C(=O)N1 , thanks.
107

Also need Cc1ccc(C[C@@H]2NC(=O)CNC(=O)[C@H](NC(=O)[C@@H](N)Cc3ccc(O)cc3)CCCCNC(=O)C[C@H](C(=O)N3CCC[C@H]3C(N)=O)NC2=O)cc1 , thanks.
115

Also need NC(=O)[C@H]1CC(=O)NCCCC[C@@H](NC(=O)[C@@H](N)Cc2ccc(O)cc2)C(=O)NCC(=O)N[C@@H](Cc2ccccc2)C(=O)N1 , thanks.
125

Also need CC1(C)NC(=O)[C@H](NC(=O)[C@@H](N)Cc2ccc(O)cc2)CCCCNC(=O)C[C@H](C(=O)N2CCC[C@H]2C(N)=O)NC(=O)[C@H](Cc2ccccc2)NC1=O , thanks.
103

----------
- target.entity: Mu-type opioid receptor (Homo sapiens)
- Sequence (P35372 whole entry): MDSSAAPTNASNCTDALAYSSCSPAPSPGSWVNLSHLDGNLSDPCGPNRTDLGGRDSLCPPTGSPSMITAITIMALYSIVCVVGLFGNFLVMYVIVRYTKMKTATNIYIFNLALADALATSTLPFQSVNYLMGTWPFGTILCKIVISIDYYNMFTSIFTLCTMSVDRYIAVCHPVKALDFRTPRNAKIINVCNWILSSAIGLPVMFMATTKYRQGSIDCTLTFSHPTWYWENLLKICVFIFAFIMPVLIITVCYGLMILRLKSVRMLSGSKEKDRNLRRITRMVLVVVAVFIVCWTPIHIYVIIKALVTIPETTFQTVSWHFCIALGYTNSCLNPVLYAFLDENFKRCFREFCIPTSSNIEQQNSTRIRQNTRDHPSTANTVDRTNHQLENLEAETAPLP
- run.description: Agonist activity at human MOR expressed in CHO-K1 cells co-expressing G-alpha15 by calcium mobilization assay
- Type: functional, cell-based
- condition.summary: cho-k1
The entries below are paired with their reported EC50.
Numeric only. Scale: nM

Before answering, review these 10 worked examples.
test.smiles: Cc1ccc(C[C@@H]2NC(=O)CNC(=O)[C@H](NC(=O)[C@@H](N)Cc3ccc(O)cc3)CCCCNC(=O)C[C@@H](C(=O)N3CCC[C@@H]3C(N)=O)NC2=O)cc1
target.entity: Mu-type opioid receptor (Homo sapiens)
scale.unit: nM
EC50: 29.1
//
test.smiles: C[C@@H]1NC(=O)[C@H](NC(=O)[C@@H](N)Cc2ccc(O)cc2)CCCCNC(=O)C[C@H](C(=O)N2CCC[C@H]2C(N)=O)NC(=O)[C@H](Cc2ccccc2)NC1=O
target.entity: Mu-type opioid receptor (Homo sapiens)
scale.unit: nM
EC50: 8.2
//
test.smiles: NC(=O)CNC(=O)[C@@H]1CC(=O)NCCCC[C@@H](NC(=O)[C@@H](N)Cc2ccc(O)cc2)C(=O)NCC(=O)N[C@@H](Cc2ccccc2)C(=O)N1
target.entity: Mu-type opioid receptor (Homo sapiens)
scale.unit: nM
EC50: 113
//
test.smiles: Cc1cc(O)cc(C)c1C[C@H](N)C(=O)N[C@@H]1CCCCNC(=O)C[C@@H](C(=O)N2CCC[C@@H]2C(N)=O)NC(=O)[C@H](Cc2ccccc2)NC(=O)CNC1=O
target.entity: Mu-type opioid receptor (Homo sapiens)
scale.unit: nM
EC50: 7.3
//
test.smiles: CN1CC(=O)N[C@@H](Cc2ccccc2)C(=O)N[C@H](C(=O)N2CCC[C@@H]2C(N)=O)CC(=O)NCCCC[C@@H](NC(=O)[C@@H](N)Cc2ccc(O)cc2)C1=O
target.entity: Mu-type opioid receptor (Homo sapiens)
scale.unit: nM
EC50: 1150
//
test.smiles: NC(=O)[C@@H]1CC(=O)NCCCC[C@@H](NC(=O)[C@@H](N)Cc2ccc(O)cc2)C(=O)NCC(=O)N[C@@H](Cc2ccccc2)C(=O)N1
target.entity: Mu-type opioid receptor (Homo sapiens)
scale.unit: nM
EC50: 1.4
//
test.smiles: NC(=O)[C@H]1CCCCN1C(=O)[C@H]1CC(=O)NCCCC[C@@H](NC(=O)[C@@H](N)Cc2ccc(O)cc2)C(=O)NCC(=O)N[C@@H](Cc2ccccc2)C(=O)N1
target.entity: Mu-type opioid receptor (Homo sapiens)
scale.unit: nM
EC50: 4.9
//
test.smiles: NC(=O)[C@@H]1CCCCN1C(=O)[C@H]1CC(=O)NCCCC[C@@H](NC(=O)[C@@H](N)Cc2ccc(O)cc2)C(=O)NCC(=O)N[C@@H](Cc2ccccc2)C(=O)N1
target.entity: Mu-type opioid receptor (Homo sapiens)
scale.unit: nM
EC50: 0.9
//
test.smiles: CN1C(=O)CNC(=O)[C@H](NC(=O)[C@@H](N)Cc2ccc(O)cc2)CCCCNC(=O)C[C@@H](C(=O)N2CCC[C@@H]2C(N)=O)NC(=O)[C@@H]1Cc1ccccc1
target.entity: Mu-type opioid receptor (Homo sapiens)
scale.unit: nM
EC50: 2.5
//
test.smiles: C[C@H]1NC(=O)[C@H](NC(=O)[C@@H](N)Cc2ccc(O)cc2)CCCCNC(=O)C[C@H](C(=O)N2CCC[C@H]2C(N)=O)NC(=O)[C@H](Cc2ccccc2)NC1=O
target.entity: Mu-type opioid receptor (Homo sapiens)
scale.unit: nM
EC50: 62.4

Data request, read-out EC50, for NC(=O)[C@H]1CCCN1C(=O)[C@@H]1CC(=O)NCCCC[C@@H](NC(=O)[C@@H](N)Cc2ccc(O)cc2)C(=O)NCC(=O)N[C@@H](Cc2ccc3ccccc3c2)C(=O)N1
1.8
